system.tested: E. coli nitroreductase NfsB (also called NfnB) (Escherichia coli)
Sequence (P38489 2-217): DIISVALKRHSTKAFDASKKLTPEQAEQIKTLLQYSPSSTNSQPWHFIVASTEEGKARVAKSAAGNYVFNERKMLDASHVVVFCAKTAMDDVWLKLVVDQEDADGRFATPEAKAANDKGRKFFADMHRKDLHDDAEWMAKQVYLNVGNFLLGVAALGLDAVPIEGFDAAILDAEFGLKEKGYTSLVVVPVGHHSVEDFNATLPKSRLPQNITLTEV
observed.property: pKd
# pKd = -log10(concentration in molar units)

# input compound: O=C(O)c1cccnc1 [nicotinate] ; wanted: its pKd
2.72
